The origin of these recorded values is ChEMBL document CHEMBL4184177.

target: UniProtKB P00533
Sequence (P00533 whole entry): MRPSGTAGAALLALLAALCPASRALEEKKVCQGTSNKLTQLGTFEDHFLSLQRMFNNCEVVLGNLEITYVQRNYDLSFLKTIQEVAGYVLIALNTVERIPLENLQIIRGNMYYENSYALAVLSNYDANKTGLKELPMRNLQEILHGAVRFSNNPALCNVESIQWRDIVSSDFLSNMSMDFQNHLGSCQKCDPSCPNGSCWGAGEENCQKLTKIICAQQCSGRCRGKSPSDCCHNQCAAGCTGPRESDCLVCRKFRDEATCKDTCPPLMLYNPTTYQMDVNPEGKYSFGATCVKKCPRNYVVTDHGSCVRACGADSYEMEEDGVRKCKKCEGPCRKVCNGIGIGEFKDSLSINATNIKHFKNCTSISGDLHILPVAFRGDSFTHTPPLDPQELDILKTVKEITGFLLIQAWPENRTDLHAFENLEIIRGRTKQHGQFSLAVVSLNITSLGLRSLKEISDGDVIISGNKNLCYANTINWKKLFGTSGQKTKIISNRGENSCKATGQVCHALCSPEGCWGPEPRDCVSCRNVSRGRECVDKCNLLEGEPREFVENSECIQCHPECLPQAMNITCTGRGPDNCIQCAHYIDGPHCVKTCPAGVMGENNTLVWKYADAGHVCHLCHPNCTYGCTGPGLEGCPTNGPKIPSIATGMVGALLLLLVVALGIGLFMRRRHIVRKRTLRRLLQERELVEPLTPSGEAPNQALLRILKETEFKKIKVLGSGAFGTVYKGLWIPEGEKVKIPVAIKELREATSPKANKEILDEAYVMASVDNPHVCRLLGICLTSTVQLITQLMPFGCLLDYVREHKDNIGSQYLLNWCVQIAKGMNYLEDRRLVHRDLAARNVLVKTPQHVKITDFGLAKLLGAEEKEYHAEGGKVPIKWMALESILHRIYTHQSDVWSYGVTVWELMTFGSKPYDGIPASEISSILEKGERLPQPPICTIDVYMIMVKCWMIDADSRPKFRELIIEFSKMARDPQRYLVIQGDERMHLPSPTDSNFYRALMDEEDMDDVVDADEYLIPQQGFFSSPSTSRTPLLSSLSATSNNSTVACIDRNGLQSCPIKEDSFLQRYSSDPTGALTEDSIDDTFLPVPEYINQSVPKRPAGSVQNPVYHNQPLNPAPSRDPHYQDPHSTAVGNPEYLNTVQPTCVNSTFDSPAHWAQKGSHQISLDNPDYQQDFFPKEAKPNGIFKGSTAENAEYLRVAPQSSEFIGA
ATTRIBUTE_MEASURED: pIC50
Answers are plain numbers, as −log10 of the molar value.

Using the record for Cc1cc(=O)n(-c2ccc(F)cc2)nc1C(=O)Nc1ccc(Oc2ncnc3ccsc23)c(F)c1 , report its pIC50.
5.16

====

molecular target: Hepatocyte growth factor receptor (Homo sapiens)
Sequence (P08581 whole entry): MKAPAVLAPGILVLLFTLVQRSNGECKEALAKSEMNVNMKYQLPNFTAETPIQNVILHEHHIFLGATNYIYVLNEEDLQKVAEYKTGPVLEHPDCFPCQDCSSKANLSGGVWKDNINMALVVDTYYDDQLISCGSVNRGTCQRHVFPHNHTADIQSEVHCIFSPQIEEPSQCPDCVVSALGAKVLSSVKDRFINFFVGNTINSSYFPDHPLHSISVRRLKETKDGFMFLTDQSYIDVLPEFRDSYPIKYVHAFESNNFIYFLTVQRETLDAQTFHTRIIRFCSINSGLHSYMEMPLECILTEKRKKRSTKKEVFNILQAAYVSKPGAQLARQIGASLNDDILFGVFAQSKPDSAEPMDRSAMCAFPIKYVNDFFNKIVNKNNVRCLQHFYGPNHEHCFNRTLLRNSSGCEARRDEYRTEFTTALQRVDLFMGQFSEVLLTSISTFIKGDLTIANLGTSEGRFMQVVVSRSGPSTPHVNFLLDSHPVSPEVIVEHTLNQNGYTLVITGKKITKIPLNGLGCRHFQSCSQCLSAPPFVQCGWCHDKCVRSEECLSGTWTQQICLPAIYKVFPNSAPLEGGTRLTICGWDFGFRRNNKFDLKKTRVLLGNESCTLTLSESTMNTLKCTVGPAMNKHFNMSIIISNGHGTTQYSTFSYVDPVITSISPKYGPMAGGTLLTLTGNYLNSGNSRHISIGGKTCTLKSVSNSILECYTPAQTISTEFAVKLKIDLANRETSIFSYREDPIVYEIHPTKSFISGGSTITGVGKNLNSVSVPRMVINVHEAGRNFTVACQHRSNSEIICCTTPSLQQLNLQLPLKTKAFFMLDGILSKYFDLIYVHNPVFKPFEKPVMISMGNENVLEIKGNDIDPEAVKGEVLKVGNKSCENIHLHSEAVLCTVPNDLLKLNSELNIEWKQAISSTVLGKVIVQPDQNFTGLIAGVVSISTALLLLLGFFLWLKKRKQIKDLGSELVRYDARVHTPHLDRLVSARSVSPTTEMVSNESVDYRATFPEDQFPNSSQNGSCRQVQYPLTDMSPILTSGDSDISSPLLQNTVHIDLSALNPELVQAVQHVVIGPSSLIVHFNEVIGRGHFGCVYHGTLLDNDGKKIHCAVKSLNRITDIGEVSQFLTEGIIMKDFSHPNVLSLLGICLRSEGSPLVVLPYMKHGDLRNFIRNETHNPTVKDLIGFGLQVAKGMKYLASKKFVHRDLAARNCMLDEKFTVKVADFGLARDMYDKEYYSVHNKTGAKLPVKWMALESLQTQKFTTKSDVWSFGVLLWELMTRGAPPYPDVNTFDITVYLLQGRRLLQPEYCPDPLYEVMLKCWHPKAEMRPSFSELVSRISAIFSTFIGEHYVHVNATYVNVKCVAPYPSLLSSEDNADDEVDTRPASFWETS
ATTRIBUTE_MEASURED: IC50

Using the record for Cc1cc(=O)n(-c2ccc(Br)cc2F)nc1C(=O)Nc1ccc(Oc2ncnc3ccsc23)c(F)c1 , report its IC50.
0.032 µM

====

target: Vascular endothelial growth factor receptor 2 (Homo sapiens, UniProt P35968)
Sequence (P35968 whole entry): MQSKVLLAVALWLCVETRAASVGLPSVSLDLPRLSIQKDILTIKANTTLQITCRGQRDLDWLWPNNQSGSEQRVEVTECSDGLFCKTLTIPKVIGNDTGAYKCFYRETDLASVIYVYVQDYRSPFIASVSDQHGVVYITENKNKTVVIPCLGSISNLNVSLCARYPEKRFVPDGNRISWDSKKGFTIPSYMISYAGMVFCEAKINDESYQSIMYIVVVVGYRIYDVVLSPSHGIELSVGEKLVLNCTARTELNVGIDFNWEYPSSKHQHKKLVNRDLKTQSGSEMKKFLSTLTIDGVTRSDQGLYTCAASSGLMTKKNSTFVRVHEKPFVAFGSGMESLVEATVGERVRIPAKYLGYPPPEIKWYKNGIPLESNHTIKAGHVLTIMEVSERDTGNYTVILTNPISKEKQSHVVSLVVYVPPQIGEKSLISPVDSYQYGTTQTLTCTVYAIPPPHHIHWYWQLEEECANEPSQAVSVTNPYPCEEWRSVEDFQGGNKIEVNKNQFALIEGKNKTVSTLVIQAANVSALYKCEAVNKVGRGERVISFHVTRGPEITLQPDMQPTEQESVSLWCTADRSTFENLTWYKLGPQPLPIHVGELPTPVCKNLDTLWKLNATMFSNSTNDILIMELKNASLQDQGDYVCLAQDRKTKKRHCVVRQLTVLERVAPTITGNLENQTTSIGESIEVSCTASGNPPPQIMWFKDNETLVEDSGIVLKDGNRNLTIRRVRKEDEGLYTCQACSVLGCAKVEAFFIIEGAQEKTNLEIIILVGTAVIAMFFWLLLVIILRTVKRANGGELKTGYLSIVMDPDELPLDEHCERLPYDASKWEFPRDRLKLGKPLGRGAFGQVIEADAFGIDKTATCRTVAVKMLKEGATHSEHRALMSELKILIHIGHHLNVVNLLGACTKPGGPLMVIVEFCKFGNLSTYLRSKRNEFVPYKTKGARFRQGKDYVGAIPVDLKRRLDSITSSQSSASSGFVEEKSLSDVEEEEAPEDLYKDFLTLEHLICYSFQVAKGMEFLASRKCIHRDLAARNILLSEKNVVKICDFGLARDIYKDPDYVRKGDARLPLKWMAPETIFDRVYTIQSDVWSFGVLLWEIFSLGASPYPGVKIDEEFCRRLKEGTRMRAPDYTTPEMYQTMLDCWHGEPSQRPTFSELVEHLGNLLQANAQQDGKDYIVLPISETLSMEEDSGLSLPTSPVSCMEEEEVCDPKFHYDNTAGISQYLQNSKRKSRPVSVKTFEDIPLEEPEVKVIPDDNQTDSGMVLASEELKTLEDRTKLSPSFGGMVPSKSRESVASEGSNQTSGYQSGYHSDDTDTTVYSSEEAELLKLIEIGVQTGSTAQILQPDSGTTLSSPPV
ATTRIBUTE_MEASURED: IC50 (nM)
Give bare numbers, in nM.

Using the record for Cc1cc(=O)n(-c2ccc(F)cc2)nc1C(=O)Nc1ccc(Oc2ncnc3ccsc23)c(F)c1 , report its IC50.
450
